Test system: Sodium- and chloride-dependent GABA transporter 2 (Mus musculus)
ASSAY SUMMARY: Inhibition of mouse GAT-3 expressed in HEK293 cells assessed as remaining [3H]GABA uptake at 100 uM preincubated for 25 mins followed by [3H]GABA addition and measured after 4 mins by scintillation counting analysis
PROPERTY: Activity (%)
Give the value, in units of %, as a plain number.

Some entries whose results are on file:
O=C(O)C1CCCN(CCO/N=C/c2ccccc2-c2ccc(F)cc2Cl)C1 (racemic): 62.6
O=C(O)[C@@H]1CCCN(CCO/N=C/c2ccccc2-c2ccc(F)cc2Cl)C1: 77.7
O=C(O)C1CCCN(CCO/N=C/c2ccccc2-c2ccc(F)cc2F)C1 (racemic): 90.9

QUERY: Look up and report Activity, with Sodium- and chloride-dependent GABA transporter 2 (Mus musculus) as system, for O=C(O)[C@@H]1CCCN(CCO/N=C/c2ccccc2-c2ccc(F)cc2F)C1
RESULT: 75.5
